All figures here come from ChEMBL document CHEMBL4483862.

Tested on: Plasmodium berghei
Experiment: Luciferase/luciferin-expressing antifolate-resistant parasites were used to infect a culture of HepG2 cells that were pre-incubated with compounds. Infected hepatocytes emit light due to the luciferase reaction. Assay results are presented as the percent inhibition of light emission compared to control. […]
Type: functional
Conditions: sporozoite, read-out: LUCIFERASE INFECTION ASSAY - IC90
reported property: IC90

Task: Field request: IC90 | item: CC(Sc1nc2ccccc2c(=O)n1-c1ccccc1F)c1nnc(-c2cccs2)o1 (stereo not given)
Output: > 10 µM

Task: Field request: IC90 | item: COc1cc(NC(=S)Nc2ccc(Cl)cc2)cc(C(F)(F)F)c1
Output: > 9.15 µM

***
Task: Field request: IC90 | item: COc1cc(-c2cnc3cnc(-c4cccc(NC(C)=O)c4)cn23)cc(OC)c1OC
Output: > 7.89 µM

Task: Field request: IC90 | item: CCOC(=O)c1cc(C#N)c(Sc2n[nH]c(=O)n2C(C)C)nc1C(F)(F)F
Output: > 8.22 µM

Task: Field request: IC90 | item: CCN(Cc1ccccc1)c1ccc(/C=N/Nc2ccc(C)c(Cl)c2)cc1
Output: > 10 µM
